# Tested on: Amyloid-beta precursor protein (Homo sapiens, UniProt P05067)
# Sequence (P05067 whole entry): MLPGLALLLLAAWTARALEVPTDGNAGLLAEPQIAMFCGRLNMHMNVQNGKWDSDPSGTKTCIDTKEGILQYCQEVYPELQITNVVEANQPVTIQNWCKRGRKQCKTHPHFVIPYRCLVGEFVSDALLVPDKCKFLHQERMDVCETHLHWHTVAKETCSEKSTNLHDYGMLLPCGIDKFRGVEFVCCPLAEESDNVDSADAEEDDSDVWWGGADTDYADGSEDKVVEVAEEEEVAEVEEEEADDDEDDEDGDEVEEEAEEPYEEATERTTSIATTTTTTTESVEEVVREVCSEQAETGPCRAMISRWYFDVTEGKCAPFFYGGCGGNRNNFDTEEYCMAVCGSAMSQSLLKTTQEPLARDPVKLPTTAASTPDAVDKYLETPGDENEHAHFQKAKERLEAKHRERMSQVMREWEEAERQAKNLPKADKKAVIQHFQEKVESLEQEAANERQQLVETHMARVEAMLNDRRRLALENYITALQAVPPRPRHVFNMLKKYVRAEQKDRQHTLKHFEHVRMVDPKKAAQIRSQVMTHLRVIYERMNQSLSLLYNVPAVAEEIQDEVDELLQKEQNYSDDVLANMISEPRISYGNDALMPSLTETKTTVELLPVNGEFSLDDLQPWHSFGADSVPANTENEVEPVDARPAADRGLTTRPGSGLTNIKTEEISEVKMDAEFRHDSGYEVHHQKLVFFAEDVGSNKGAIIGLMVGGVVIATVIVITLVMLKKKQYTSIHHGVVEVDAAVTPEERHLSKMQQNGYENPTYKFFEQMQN
# Assay notes: Inhibition of self-induced amyloid beta (1 to 42) (unknown origin) aggregation measured after 48 hrs by ThT fluorescence assay
Consider the following compounds; for each one, report its pIC50.
# pIC50 = -log10(concentration in molar units)

pIC50 for O=[N+]([O-])c1cccc(C2C=C(c3cccc4ccccc34)Nc3nncn32)c1 (configuration not stated) is 4.76

Entry under test: Fc1ccc(C2C=C(c3cccc4ccccc34)Nc3nncn32)cc1 (configuration not stated) . Its pIC50 was 5.41

====

# Tested on: Amyloid-beta precursor protein (Homo sapiens, UniProt P05067)
# Assay notes: Inhibition of HFIP-pretreated self-induced amyloid beta (1 to 42) (unknown origin) aggregation at 50 uM measured after 48 hrs by ThT fluorescence assay relative to control
Calls of active or inactive are those of the source. No cut-off for these calls is given here.
Measured endpoint: inhibition

Use these answered entries as a reference point.
INSERT INTO results (compound, measured_endpoint, meas_value) VALUES
  ('c1coc(-c2cc(-c3cccc4ccccc34)nc3nncn23)c1', 'inhibition', '12.1%'),
  ('c1ccc(-c2cc(-c3cccc4ccccc34)nc3nncn23)cc1', 'inhibition', 'inactive'),
  ('COc1ccc(-c2cc(-c3cccc4ccccc34)nc3nncn23)cc1OC', 'inhibition', '36.6%'),
  ('CN(C)c1ccc(-c2cc(-c3cccc4ccccc34)nc3nncn23)cc1', 'inhibition', '43.1%'),
  ('O=[N+]([O-])c1cccc(C2C=C(c3cccc4ccccc34)Nc3nncn32)c1 (stereo not given)', 'inhibition', '72.8%');

get_value(item= Fc1ccc(C2C=C(c3cccc4ccccc34)Nc3nncn32)cc1 (stereo not given) , readout=inhibition) returns 85.5%

compound Clc1ccccc1C1C=C(c2cccc3ccccc23)Nc2nncn21 (stereo not given) , inhibition observed: 40.4%

Entry Clc1ccc(C2C=C(c3cccc4ccccc34)Nc3nncn32)cc1 (stereo not given) — recorded inhibition = inactive

Reported inhibition ( COc1ccc(C2C=C(c3cccc4ccccc34)Nc3nncn32)cc1 (stereo not given) ) = 31.2%

Briefly, inhibition measured for COc1ccc(OC)c(C2C=C(c3cccc4ccccc34)Nc3nncn32)c1 (stereo not given) : 42.1%
